tested on: red blood cells; test: Hemolytic activity on red blood cells; format: cell-based, mouse
Non-standard residues stand in square brackets, D forms with d. Residues, ends and D or L forms follow the SMILES beside them. Nspe = C[C@H](NCC(=O)O)c1ccccc1; Nphe = O=C(O)CNCc1ccccc1; Nlys = NCCCCNCC(=O)O
Listed below: HD50 values for each entry.
Measured parameter: HD50

{"Compound": "C[C@@H](c1ccccc1)N(CC(=O)N(CC(=O)N(CCCCN)CC(=O)N(CC(=O)N(CC(=O)N(CCCCN)CC(=O)N(CC(=O)N(CC(N)=O)Cc1ccccc1)Cc1ccccc1)Cc1ccccc1)Cc1ccccc1)Cc1ccccc1)C(=O)CN(CCCCN)C(=O)CN(Cc1ccccc1)C(=O)CN(Cc1ccccc1)C(=O)CNCCCCN [compound 5] (H-[Nlys][Nphe][Nphe][Nlys][Nspe][Nphe][Nlys][Nphe][Nphe][Nlys][Nphe][Nphe]-NH2)", "Tested on": "red blood cells", "Measured parameter": "HD50", "Limit sign": "=", "Observed value": 195.0}
{"Compound": "Cc1ccc([C@H](C)N(CC(N)=O)C(=O)CN(C(=O)CN(CCCCN)C(=O)CN(C(=O)CN(C(=O)CN(CCCCN)C(=O)CN(C(=O)CN(C(=O)CN(CCCCN)C(=O)CN(C(=O)CN(C(=O)CNCCCCN)[C@@H](C)c2ccc(C)cc2)[C@@H](C)c2ccc(C)cc2)[C@@H](C)c2ccc(C)cc2)[C@@H](C)c2ccc(C)cc2)[C@@H](C)c2ccc(C)cc2)[C@@H](C)c2ccc(C)cc2)[C@@H](C)c2ccc(C)cc2)cc1 [compound 20]", "Tested on": "red blood cells", "Measured parameter": "HD50", "Limit sign": "=", "Observed value": 8.3}
{"Compound": "C[C@@H](c1ccccc1)N(CC(N)=O)C(=O)CN(C(=O)CN(CCCCN)C(=O)CN(Cc1ccccc1)C(=O)CN(Cc1ccccc1)C(=O)CN(CCCCN)C(=O)CN(Cc1ccccc1)C(=O)CN(Cc1ccccc1)C(=O)CN(CCCCN)C(=O)CN(C(=O)CN(C(=O)CNCCCCN)[C@@H](C)c1ccccc1)[C@@H](C)c1ccccc1)[C@@H](C)c1ccccc1 [compound 11]", "Tested on": "red blood cells", "Measured parameter": "HD50", "Limit sign": ">", "Observed value": 200}

====

Listed below: CC50 at 24 h values for each entry.
experiment: in vitro; type: cell-based; settings: human
Non-standard residues stand in square brackets, D forms with d. Residues, ends and D or L forms follow the SMILES beside them. Nspe = C[C@H](NCC(=O)O)c1ccccc1; Nlys = NCCCCNCC(=O)O

{"Compound": "C[C@@H](c1ccc(F)cc1)N(CC(N)=O)C(=O)CN(C(=O)CN(CCCCN)C(=O)CN(C(=O)CN(C(=O)CN(CCCCN)C(=O)CN(C(=O)CN(C(=O)CN(CCCCN)C(=O)CN(C(=O)CN(C(=O)CNCCCCN)[C@@H](C)c1ccc(F)cc1)[C@@H](C)c1ccc(F)cc1)[C@@H](C)c1ccc(F)cc1)[C@@H](C)c1ccc(F)cc1)[C@@H](C)c1ccc(F)cc1)[C@@H](C)c1ccc(F)cc1)[C@@H](C)c1ccc(F)cc1", "CC50 at 24 h": "9.5 µM"}
{"Compound": "C[C@@H](c1ccc(Cl)cc1)N(CC(N)=O)C(=O)CN(C(=O)CN(CCCCN)C(=O)CN(C(=O)CN(C(=O)CN(CCCCN)C(=O)CN(C(=O)CN(C(=O)CN(CCCCN)C(=O)CN(C(=O)CN(C(=O)CNCCCCN)[C@@H](C)c1ccc(Cl)cc1)[C@@H](C)c1ccc(Cl)cc1)[C@@H](C)c1ccc(Cl)cc1)[C@@H](C)c1ccc(Cl)cc1)[C@@H](C)c1ccc(Cl)cc1)[C@@H](C)c1ccc(Cl)cc1)[C@@H](C)c1ccc(Cl)cc1", "CC50 at 24 h": "3 µM"}
{"Compound": "Cc1ccc([C@H](C)N(CC(N)=O)C(=O)CN(C(=O)CN(CCCCN)C(=O)CN(C(=O)CN(C(=O)CN(CCCCN)C(=O)CN(C(=O)CN(C(=O)CN(CCCCN)C(=O)CN(C(=O)CN(C(=O)CNCCCCN)[C@@H](C)c2ccc(C)cc2)[C@@H](C)c2ccc(C)cc2)[C@@H](C)c2ccc(C)cc2)[C@@H](C)c2ccc(C)cc2)[C@@H](C)c2ccc(C)cc2)[C@@H](C)c2ccc(C)cc2)[C@@H](C)c2ccc(C)cc2)cc1", "CC50 at 24 h": "8 µM"}
{"Compound": "C[C@@H](c1ccccc1)N(CC(N)=O)C(=O)CN(C(=O)CN(CCCCN)C(=O)CN(C(=O)CN(C(=O)CN(CCCCN)C(=O)CN(C(=O)CN(C(=O)CNCCCCN)[C@@H](C)c1ccccc1)[C@@H](C)c1ccccc1)[C@@H](C)c1ccccc1)[C@@H](C)c1ccccc1)[C@@H](C)c1ccccc1 [compound 18] (H-[Nlys][Nspe][Nspe][Nlys][Nspe][Nspe][Nlys][Nspe][Nspe]-NH2)", "CC50 at 24 h": "40 µM"}

Sourced from patent US10815275B2
